// Foxtail, Giant plant response rating lookup, one value per entry
System: giant foxtail
Assay: Test A pre-/postemergence herbicide test
Format: in vivo, Setaria faberi
Details: Preemergence, 500 g ai/ha; visual rating, 0 to 100 scale (0 no effect, 100 complete control)
Source text: […] Plants ranged in height from 2 to 10 cm and were in the one- to two-leaf stage for the postemergence treatment. Treated plants and untreated controls were maintained in a greenhouse for approximately ten days, after which time all treated plants were compared to untreated controls and visually evaluated for injury. […]
assayEndpoint: Foxtail, Giant plant response rating

molecule: CCCCn1nc(C(C)(C)C)cc1C(=O)Nc1cccc(C(=O)NCC)c1
assayEndpoint: Foxtail, Giant plant response rating
observedMeasurement: 30
//
molecule: CCCCn1nc(C(C)(C)C)cc1C(=O)Nc1cccc(C(=O)N(CC)CC)c1
assayEndpoint: Foxtail, Giant plant response rating
observedMeasurement: 0
//
molecule: CCn1nc(C(C)(C)C)cc1C(=O)Nc1cccc(C(C)=NO)c1
assayEndpoint: Foxtail, Giant plant response rating
observedMeasurement: 95
//
molecule: CCNC(=O)c1cc(C)nc(NC(=O)c2cc(C(C)(C)C)nn2CC)c1
assayEndpoint: Foxtail, Giant plant response rating
observedMeasurement: 70
//
molecule: CCn1nc(C(C)(C)C)cc1C(=O)Nc1cccc(C(=O)OC)c1C
assayEndpoint: Foxtail, Giant plant response rating
observedMeasurement: 35
//
molecule: C=Cn1nc(C(C)(C)C)cc1C(=O)Nc1cccc(C(=O)OCC)c1
assayEndpoint: Foxtail, Giant plant response rating
observedMeasurement: 55
//
molecule: CCN(CC)C(=O)c1cccc(NC(=O)c2cc(C(C)(C)C)nn2CC)n1
assayEndpoint: Foxtail, Giant plant response rating
observedMeasurement: 85
//
molecule: CCn1nc(C(C)(C)C)cc1C(=O)Nc1nccc(OC)n1
assayEndpoint: Foxtail, Giant plant response rating
observedMeasurement: 0
//
molecule: C#CCOC(=O)c1cccc(NC(=O)c2cc(C(C)(C)C)nn2CC)c1
assayEndpoint: Foxtail, Giant plant response rating
observedMeasurement: 0
//
molecule: CC(=NO)c1cccc(NC(=O)c2cc(C(C)(C)C)nn2CC(F)(F)F)c1
assayEndpoint: Foxtail, Giant plant response rating
observedMeasurement: 25
//
molecule: CCn1nc(C(C)(C)C)cc1C(=O)Nc1cccc2c1CNC2=O
assayEndpoint: Foxtail, Giant plant response rating
observedMeasurement: 20

----------
system: barnyardgrass; assay: Test B pre-/postemergence herbicide test; type: in vivo, Echinochloa crus-galli; details: 500 g ai/ha; visual rating 0-100, 0 no effect, 100 complete control; preemergence

compound: C#CCNC(=O)c1cccc(NC(=O)c2sc(C(C)(C)C)nc2C)c1 [Compound 203]
testSystem: barnyardgrass
Plant response rating, Barnyardgrass: 10

compound: CC(=O)c1cc(NC(=O)c2cc(C(C)(C)C)nn2C)ccc1F [Compound 123]
testSystem: barnyardgrass
Plant response rating, Barnyardgrass: 0

compound: CCNC(=O)c1cc(C)nc(NC(=O)c2cc(C(C)(C)C)nn2CC)c1 [Compound 149]
testSystem: barnyardgrass
Plant response rating, Barnyardgrass: 90

----------
system: barnyardgrass; experiment: Test C flooded paddy test; assay type: in vivo, Echinochloa crus-galli; details: 250 g ai/ha, scale of 0 to 100, 0 is no effect, 100 is complete control
assayEndpoint: Barnyardgrass plant response rating

molecule: CCn1nc(C(C)(C)C)cc1C(=O)Nc1cc(C#N)ccc1F
assayEndpoint: Barnyardgrass plant response rating
observedMeasurement: 0
//
molecule: C=CCn1nc(C(C)(C)C)cc1C(=O)Nc1cccc(C(C)=NO)c1
assayEndpoint: Barnyardgrass plant response rating
observedMeasurement: 50
//
molecule: C#CCN(C)C(=O)c1ccnc(NC(=O)c2cc(C(C)(C)C)nn2CC)c1
assayEndpoint: Barnyardgrass plant response rating
observedMeasurement: 70
//
molecule: CCc1cn(C(C)(C)C)nc1C(=O)Nc1cc(C(=O)N(C)CC)ccn1
assayEndpoint: Barnyardgrass plant response rating
observedMeasurement: 0
//
molecule: CCC1=NN(C(C)(C)C)CC1C(=O)Nc1cc(C(=O)N2CCCC2)ccc1F (racemic)
assayEndpoint: Barnyardgrass plant response rating
observedMeasurement: 50
//
molecule: CCc1cn(C(C)(C)C)nc1C(=O)Nc1cc(C(=O)N(C)C)ccn1
assayEndpoint: Barnyardgrass plant response rating
observedMeasurement: 0
//
molecule: CCn1nc(C(C)(C)C)cc1C(=O)Nc1cccc(C(C)=NO)c1
assayEndpoint: Barnyardgrass plant response rating
observedMeasurement: 60
//
molecule: CCc1nn(C(C)(C)CC)nc1C(=O)Nc1cccc(C(=O)N(C)C)c1
assayEndpoint: Barnyardgrass plant response rating
observedMeasurement: 75
//
molecule: CCn1nc(C2(C)CC2)cc1C(=O)Nc1cccc(C(=O)N2CC=CC2)c1
assayEndpoint: Barnyardgrass plant response rating
observedMeasurement: 85

----------
system: rice; assay: Test B pre-/postemergence herbicide test; format: in vivo, Oryza sativa; conditions: 500 g ai/ha; visual rating, 0 = no effect, 100 = complete control; preemergence
// Plant response rating, Rice lookup, one value per entry

molecule: CCc1cn(C(C)(C)C)nc1C(=O)Nc1cc(C(=O)N(C)C)ccn1 [Compound 232]
Plant response rating, Rice: 50

molecule: CCn1nc(C(C)(C)C)cc1C(=O)Nc1ccnc(C(=O)NCCF)c1 [Compound 284]
Plant response rating, Rice: 20

molecule: CCN(C)C(=O)c1cc(NC(=O)c2cc(C(C)(C)C)nn2CC)c(F)cc1F [Compound 254]
Plant response rating, Rice: 20

molecule: CCc1nc(C(C)(C)C)sc1C(=O)Nc1cc(C(=O)N(C)CC)ccc1F [Compound 231]
Plant response rating, Rice: 50

molecule: CCn1nc(C(C)(C)C)cc1C(=O)Nc1cccc(OC(F)(F)F)c1 [Compound 272]
Plant response rating, Rice: 20

molecule: CCc1cn(C(C)(C)C)nc1C(=O)Nc1cc(C(=O)N(C)CC)ccn1 [Compound 235]
Plant response rating, Rice: 20

molecule: CCc1nn(C(C)(C)C)cc1C(=O)Nc1ccc(F)c(C(=O)N(C)C)c1 [Compound 239]
Plant response rating, Rice: 0

molecule: CCc1cn(C(C)(C)C)nc1C(=O)Nc1cccc(C(=O)N(C)C)n1 [Compound 330]
Plant response rating, Rice: 0

molecule: C#CCNC(=O)c1cccc(NC(=O)c2sc(C(C)(C)C)nc2CC)n1 [Compound 217]
Plant response rating, Rice: 0

molecule: CCn1nc(C(C)(C)C)cc1C(=O)Nc1cc(C(N)=O)ccc1F [Compound 271]
Plant response rating, Rice: 0

molecule: CCn1nc(C2(C)CC2)cc1C(=O)Nc1cccc(C(=O)N2CC=CC2)c1 [Compound 304]
Plant response rating, Rice: 20

----------
test system: morningglory; assay: Test B pre-/postemergence herbicide test; assay type: in vivo, Ipomoea coccinea; settings: Postemergence, 500 g ai/ha; scale 0 (no effect) to 100 (complete control)

compound: CCN(CC)C(=O)c1cccc(NC(=O)c2nn(C(C)(C)C)nc2C)c1 [Compound 418]
Morningglory plant response rating: 80

compound: CCc1nn(C(C)(C)CC)nc1C(=O)Nc1cccc(C(=O)N2CC=CC2)c1 [Compound 369]
Morningglory plant response rating: 20

compound: COC(=O)c1ccc(F)c(NC(=O)c2nn(C(C)C)nc2C)c1 [Compound 398]
Morningglory plant response rating: 20

compound: C#CCNC(=O)c1cccc(NC(=O)c2nn(C(C)(C)C)nc2CC)c1 [Compound 380]
Morningglory plant response rating: 60

compound: CCc1nn(C(C)(C)C)nc1C(=O)Nc1cc(C(=O)N(C)CC)ccc1F [Compound 388]
Morningglory plant response rating: 50

compound: CCOC(=O)c1ccnc(NC(=O)c2nn(C(C)(C)C)nc2C)c1 [Compound 421]
Morningglory plant response rating: 0

----------
tested on: velvetleaf; assay: Test B pre-/postemergence herbicide test; type: in vivo, Abutilon theophrasti; conditions: postemergence, 500 g ai/ha; scale 0 to 100, 0 is no effect, 100 is complete control
// Velvetleaf plant response rating lookup, one value per entry

molecule: CCn1nc(C(C)(C)C)cc1C(=O)Nc1cccc(C(=O)N2CC=CC2)c1
testSystem: velvetleaf
Velvetleaf plant response rating: 60
--
molecule: CCC1=NN(C(C)(C)C)CC1C(=O)Nc1cc(C(=O)N2CC=CC2)ccc1F (racemic)
testSystem: velvetleaf
Velvetleaf plant response rating: 40
--
molecule: CCn1nc(C(C)(C)C)cc1C(=O)Nc1cccc(OC(F)(F)F)c1
testSystem: velvetleaf
Velvetleaf plant response rating: 100
--
molecule: CCn1nc(C(C)(C)C)cc1C(=O)Nc1ccnc(C(=O)NCCF)c1
testSystem: velvetleaf
Velvetleaf plant response rating: 0

----------
// Plant response rating, Goosegrass lookup, one value per entry
system: goosegrass; assay: Test C pre-/postemergence herbicide test; assay type: in vivo, Eleusine indica; details: Postemergence; 250 g ai/ha; scale 0 to 100, 0 no effect, 100 complete control

molecule: CCn1nc(C(C)(C)C)cc1C(=O)Nc1cccc(C(=O)NC2CC2)n1
testSystem: goosegrass
Plant response rating, Goosegrass: 0
//
molecule: C#CCOC(=O)c1cccc(NC(=O)c2cc(C(C)(C)C)nn2CC)c1
testSystem: goosegrass
Plant response rating, Goosegrass: 5
//
molecule: CCn1nc(C(C)(C)C)cc1C(=O)Nc1cccc(C#N)c1
testSystem: goosegrass
Plant response rating, Goosegrass: 5
//
molecule: CCn1nc(C(C)(C)C)cc1C(=O)Nc1cccc(C(C)=NO)c1
testSystem: goosegrass
Plant response rating, Goosegrass: 70
